- MEASURED ON: T1, rat pancreatic islet (wild type) GIP-receptor stably expressed on CHO-K1 cells (rat, UniProt P43219 19-455)
- T1 construct: whole, on cells; also called wtGIPR cells; wtGIP-R1 cells
- T1 sequence (looked up): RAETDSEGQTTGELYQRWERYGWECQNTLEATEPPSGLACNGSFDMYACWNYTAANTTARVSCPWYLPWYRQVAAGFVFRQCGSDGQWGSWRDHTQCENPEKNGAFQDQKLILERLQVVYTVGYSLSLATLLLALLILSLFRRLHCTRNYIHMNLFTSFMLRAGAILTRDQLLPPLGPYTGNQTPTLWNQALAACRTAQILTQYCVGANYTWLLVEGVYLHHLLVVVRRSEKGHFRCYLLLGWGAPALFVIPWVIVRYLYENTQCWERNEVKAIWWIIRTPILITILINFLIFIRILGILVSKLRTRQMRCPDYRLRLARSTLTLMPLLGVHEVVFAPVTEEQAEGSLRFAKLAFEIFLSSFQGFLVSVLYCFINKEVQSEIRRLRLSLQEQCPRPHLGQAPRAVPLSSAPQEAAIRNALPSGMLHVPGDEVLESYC
- ASSAY OVERVIEW: displacement of 125I-GIP from CHO-K1 cells transfected with rat GIP receptor, 20 µM peptide
- Experimental: Cells were cultured in DMEM/F12, supplemented with 10% newborn calf serum, 50 units/ml penicillin G, and 50 μg/ml streptomycin (Culture media and antibiotics from Gibco BRL, Life Technologies). Cells were grown in 75 cm² flasks until 80-90% confluent, when they were split and seeded onto 24 well plates at a density of 50,000 cells/well. Experiments were carried out 48 h later. […]
Ends that are not written are not given here.
REPORTED METRIC: % Displacement at 20 µM (%)

binder="YAEGTFISDYSIAMEKEKQQDFVNWLLAQK-NH2 (range 1-14;range 19-30) [GIP(1-14)(EKEK)(19-30)NH2]" reported_metric="% Displacement at 20 µM" value_observed=98.7
binder="YAEGTFAAAAQQDFVNWLLAQK-NH2 (range 1-6;range 19-30; also called GIP(l-6)(AAAA)(19-30)NH2) [GIP(1-6)(AAAA)(19-30)NH2]" reported_metric="% Displacement at 20 µM" value_observed=88.7
binder="YAEGTFISDYSIAMAAAAQQDFVNWLLAQK-NH2 (range 1-14;range 19-30) [GIP(1-14)(AAAA)(19-30)NH2]" reported_metric="% Displacement at 20 µM" value_observed=100
binder="YAEGTFQQDFVNWLLAQK-NH2 (peptide, UniProt P09681 52-57, looked up, range 1-6;range 19-30; Core deletion, no linker (formula 5, C not used, truncated at residue 30)) [GIP(1-6)(19-30)NH2]" reported_metric="% Displacement at 20 µM" value_observed=88.2
binder="YAEGTFEKEEKEKEEKEQQDFVNWLLAQK-NH2 (range 1-6;range 19-30; The expected mass 3574.0 fits the 11-residue linker as printed) [GIP(1-6)(EKEEKEKEEKE)(19-30)NH2]" reported_metric="% Displacement at 20 µM" value_observed=75.1
binder="YAEGTFEKEKQQDFVNWLLAQK-NH2 (range 1-6;range 19-30) [GIP(1-6)(EKEK)(19-30)NH2]" reported_metric="% Displacement at 20 µM" value_observed=86.8
binder="YAEGTFISDYSIAMQQDFVNWLLAQK-NH2 (peptide, UniProt P09681 52-65, looked up, range 1-14;range 19-30; Core deletion, no linker (formula 6, D unused, truncated at residue 30)) [GIP(1-14)(19-30)NH2]" reported_metric="% Displacement at 20 µM" value_observed=95.4
